Catalogue of composite z-score values
Test system: Wnt5a (protein binding on small-molecule microarray)
Protocol notes: Wnt5a binders on small-molecule microarray, primary screen, biophysical, 635/667 nm fluorescence (AID 1142);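 further: fluorescence read at 667 nm with signal to noise per printed feature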
Settings: 635 nm fluorescence, higher = more signal
Answer with a number only.

Please review the entries below; each comes with its answer.
# get_value(readout= composite z-score, system= Wnt5a (protein binding on small-molecule microarray)) for "COc1ccc(CCNC(=O)[C@@]2(c3ccc([N+](=O)[O-])cc3)CC(=O)N(CC34CC5CC(CC(C5)C3)C4)[C@@H]2c2ccc(CO)cc2)cc1"
0.145

# get_value(readout= composite z-score, system= Wnt5a (protein binding on small-molecule microarray)) for "COCCOC(=O)N1C(=O)[C@@]2(c3ccccc31)[C@H](C(=O)Nc1nc3ccccc3s1)[C@H]1C(=O)O[C@H](c3ccccc3)[C@H](c3ccccc3)N1[C@@H]2c1ccc(OCCO)cc1"
0.931

# get_value(readout= composite z-score, system= Wnt5a (protein binding on small-molecule microarray)) for "O=c1cccc(C=Cc2ccccc2)o1"
-0.276

# get_value(readout= composite z-score, system= Wnt5a (protein binding on small-molecule microarray)) for "COCCCNC(=O)[C@@]1(CCC(=O)OC(C)(C)C)N=C(c2ccc(OCCCO)cc2)O[C@H]1c1ccccc1CN=[N+]=[N-]"
1.01

# get_value(readout= composite z-score, system= Wnt5a (protein binding on small-molecule microarray)) for "COCCOC(=O)N1C(=O)[C@@]2(c3cc(C#CCC(C(=O)OC)C(=O)OC)ccc31)[C@H](c1ccccc1OCCO)N1[C@H](c3ccccc3)[C@H](c3ccccc3)OC(=O)[C@H]1[C@@H]2C(=O)N1CCc2cc(OC)c(OC)cc2C1"
-0.184

Continuing:
# get_value(readout= composite z-score, system= Wnt5a (protein binding on small-molecule microarray)) for "CCOC(=O)C[C@H]1[C@H](OC(=O)c2ccccc2-c2ccccc2)[C@@H](NC(=O)c2ccc3ccccc3c2)c2cc(OCCCO)ccc2N1C(=O)c1ccc2ccccc2n1"
0.0952

# get_value(readout= composite z-score, system= Wnt5a (protein binding on small-molecule microarray)) for "COC(=O)[C@@]1(Cc2ccccc2)[C@H]2c3cc(C(=O)N4CCCC4)n(C)c3C[C@H]2CN1C(=O)c1ccccc1"
0.0131

# get_value(readout= composite z-score, system= Wnt5a (protein binding on small-molecule microarray)) for "O=C1O[C@H](c2ccccc2)[C@H](c2ccccc2)N2[C@H]1[C@@H](C(=O)Nc1nc3ccccc3s1)[C@]1(C(=O)Nc3ccccc31)[C@H]2c1ccc(O)cc1"
0.0365

# get_value(readout= composite z-score, system= Wnt5a (protein binding on small-molecule microarray)) for "CCCCCCc1nc(CCCc2cc3c(c(CCCCCC)n2)[Si](C(C)C)(C(C)C)OC3)cc2c1[Si](C(C)C)(C(C)C)OC2"
-0.0564

# get_value(readout= composite z-score, system= Wnt5a (protein binding on small-molecule microarray)) for "COc1ccc(C#Cc2ccc3c(c2)[C@]2(C(=O)N3)[C@H](C(=O)NC[C@H](O)c3ccccc3)[C@H]3C(=O)O[C@H](c4ccccc4)[C@H](c4ccccc4)N3[C@@H]2c2ccccc2OCCO)cc1"
0.0762

# get_value(readout= composite z-score, system= Wnt5a (protein binding on small-molecule microarray)) for "CC1=C2[C@@H](CCc3ccccc3)OB(O)C[C@@H]2n2c(=O)n(-c3ccccc3)c(=O)n2C1"
0.207

# get_value(readout= composite z-score, system= Wnt5a (protein binding on small-molecule microarray)) for "C=C[C@H](COC(C)=O)N(Cc1ccc(OC(C)=O)c(OC)c1)S(=O)(=O)c1ccc(Br)cc1"
0.714

# get_value(readout= composite z-score, system= Wnt5a (protein binding on small-molecule microarray)) for "CC(C)C[C@@H]1NC(=O)[C@H]2C[C@@H](C(=O)NCCCCCNC(=O)CS)[C@@H](c3cccc(OCCO)c3)N2C1=O"
1.1

# get_value(readout= composite z-score, system= Wnt5a (protein binding on small-molecule microarray)) for O=C(OCCF)C1=CCC(c2cccc(Cl)c2)O1 (stereo not given)
0.236

# get_value(readout= composite z-score, system= Wnt5a (protein binding on small-molecule microarray)) for CC=CC(O)C1C=CC2C(=O)N(c3ccccc3)C(=O)C2N1Nc1ccc(C(C)C)cc1 (stereo not given)
0.288
